TEST: Quantitative High-Throughput drug screen in 47 multiple myeloma cell lines against the NCATS MIPE library collection: Delta47_JCRB cell viability assay (AID 1918925; note: nearly all actives have a fitted effect of over 45% in size; note: potency is the fitted concentration of half-maximal effect)
EXPERIMENTAL CONTEXT: Delta47 myeloma viability, CellTiter-Glo ATP, 48 h; series mostly up to 45.8 µM
Inconclusive results are not listed. The source made the active and inactive calls. Calls come from the whole dose curve; as a rule, active = well fitted cell-killing curve with a large enough effect; inconclusive = small, poorly fitted or top-dose-only effect, or effect the other way; inactive = no such curve, though single readings can be large or run the other way.
OUTCOME MEASURE: Potency

As a guide, the following entries are already answered.
# COMPOUND, OUTCOME MEASURE, REPORTED
measured = [
    ("CC(=Cc1csc(C)n1)[C@@H]1C[C@H]2O[C@]2(C)CCC[C@H](C)[C@@H](O)[C@@H](C)C(=O)C(C)(C)[C@@H](O)CC(=O)O1", "Potency", "inactive"),
    ("CO[C@H]1CCC(O[C@H]2C[C@H]([C@]3(C)CC[C@]4(C[C@H](O)[C@@H](C)[C@@H]([C@@H](C)C=C(C)C(=O)[C@H](C)C[C@H](C)C(=O)O)O4)O3)O[C@]3(O[C@@H]([C@H]4O[C@@](O)(CO)[C@H](C)C[C@H]4C)C[C@H]3C)[C@H]2C)O[C@H]1C (stereo not given in full)", "Potency", "1.18 µM (active)"),
    ("NC1=NC(=O)N2CC12 (stereo not given)", "Potency", "10.5 µM (active)"),
    ("C=C[C@@H]1CN2CCC1C[C@@H]2[C@@H](O)c1ccnc2ccccc12 (stereo not given in full)", "Potency", "23.5 µM (active)"),
    ("O=C(N[C@@H](COc1ccc2[nH]c(=O)[nH]c2c1)c1ccccc1)c1cccn(Cc2ccc(F)c(F)c2)c1=O", "Potency", "20.9 µM (active)"),
]

Measured Potency of CCNC(=O)C[C@@H]1N=C(c2ccc(Cl)cc2)c2cc(OC)ccc2-n2c(C)nnc21 : 0.418 µM (active)

Measured Potency of CC(C)(C)c1cc(C=C(C#N)C#N)cc(Br)c1O : 16.6 µM (active)

Measured Potency of O=c1[nH]c2ccccc2n1C1CCN(Cc2ccc(-c3[nH]c4cc5ncnc5cc4nc3-c3ccccc3)cc2)CC1 : 1.87 µM (active)

Measured Potency of C[C@@H]1O[C@@H](O[C@@H]2C=C3CC[C@@H]4[C@@H](CC[C@]5(C)[C@H](c6ccc(=O)oc6)CC[C@@]45O)[C@@]3(C)CC2)[C@H](O)[C@H](O)[C@H]1O : 0.0264 µM (active)

Measured Potency of CC[C@@]1(O)C(=O)OCc2c1cc1n(c2=O)Cc2cc3ccccc3nc2-1 : 0.0743 µM (active)

###

TEST: Inducers of the Endoplasmic Reticulum Stress Response (ERSR) in human glioma: Validation (AID 504836)
EXPERIMENTAL CONTEXT: human glioma cells, ER stress response reporter; series mostly up to 38.3 µM
Active and inactive are the calls of the source. The call rests on the fitted dose curve; in most records, active means well fitted curve in the direction sought with a large enough effect; inconclusive means small, poorly fitted or top-dose-only effect, or effect the other way, or another doubt; inactive means no such curve, though single readings can be large or run the other way.
OUTCOME MEASURE: outcome

# COMPOUND, outcome
rows = [
    ("NC(CO)C(=O)NNCc1ccc(O)c(O)c1O (stereo not drawn)", "inactive"),
    ("CC(C[N+](C)(C)C)OC(N)=O (stereo not drawn)", "inactive"),
    ("CCOC(=O)C(C)Oc1cccc2c(=O)n(CC(=O)Nc3ccc4c(c3)OCCO4)ccc12 (stereo not drawn)", "inactive"),
    ("CC(C)NC(C)Cc1ccc(I)cc1 (stereo not drawn)", "inactive"),
    ("CN[C@@H]1C[C@@H](c2ccc(Cl)c(Cl)c2)c2ccccc21", "inactive"),
]

Measured outcome of C[C@@H]1O[C@H](C[N+](C)(C)C)C[C@H]1O : inactive

Measured outcome of CCN(CC)CCNC(=O)c1ccc(NC(C)=O)cc1 : inactive

Measured outcome of NCCCC(N)(C(=O)O)C(F)F (stereo not drawn) : inactive

Measured outcome of CC1=C(/C=C/C(C)=C/C=C/C(C)=C/C(=O)O)C(C)(C)CCC1 : inactive

###

SUBJECT OF TEST: Cytochrome P450 2D6 (Homo sapiens) (UniProt P10635)
Sequence (P10635 whole entry, looked up): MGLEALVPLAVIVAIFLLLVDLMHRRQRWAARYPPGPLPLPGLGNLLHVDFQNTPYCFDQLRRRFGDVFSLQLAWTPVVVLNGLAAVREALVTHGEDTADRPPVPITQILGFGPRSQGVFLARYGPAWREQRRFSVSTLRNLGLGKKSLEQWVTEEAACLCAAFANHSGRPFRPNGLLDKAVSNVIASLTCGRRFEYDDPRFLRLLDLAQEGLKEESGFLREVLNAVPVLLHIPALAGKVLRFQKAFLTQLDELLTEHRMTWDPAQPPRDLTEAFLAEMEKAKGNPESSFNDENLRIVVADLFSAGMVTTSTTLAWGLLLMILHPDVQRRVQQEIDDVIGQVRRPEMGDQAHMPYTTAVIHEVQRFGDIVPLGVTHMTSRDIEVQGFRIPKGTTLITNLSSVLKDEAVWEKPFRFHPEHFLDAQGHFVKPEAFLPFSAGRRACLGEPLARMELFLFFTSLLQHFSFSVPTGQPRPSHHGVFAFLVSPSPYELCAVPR
TEST: Cytochrome P450 family 2 subfamily D member 6 (CYP2D6) small molecule antagonists: luciferase biochemical (cell-free) qHTS assay (AID 1645840); note: nearly all actives have a fitted effect of over 55% in size; note: potency is the fitted concentration of half-maximal effect
EXPERIMENTAL CONTEXT: P450-Glo CYP2D6 enzyme, luciferin luminescence, 1 h; series mostly up to 57.4 µM
Source text: National Center for Advancing Translational Sciences [NCATS] Assay Overview: Cytochrome P450 (CYP) enzymes are membrane-bound hemeproteins that play a key role in metabolism of drugs and xenobiotics. Assaying the effect of chemicals on CYP isozymes is useful to minimize the adverse drug reactions and toxicities in drug development process. […] The luciferin products formed are detected with a luciferin detection reagent, and the amount of light produced is proportional to CYP activity. […]
Results filed as inconclusive are left out. Calls of active or inactive are those of the source. The call rests on the fitted dose curve; in most records, active means well fitted inhibition curve with a large enough effect in the repeat runs; inconclusive means weak or mixed curves; inactive means flat fitted curve, though single readings scatter.
OUTCOME MEASURE: Potency

As a guide, the following entries are already answered.
# COMPOUND, Potency
data = [
    ("CCc1c(C(=O)C(N)=O)c2c(OCC(=O)O)cccc2n1Cc1ccccc1", "inactive"),
    ("O=C(Nc1ccncc1)C(=O)c1cn(Cc2ccc(Cl)cc2)c2ccccc12", "inactive"),
    ("Cc1ccccc1-n1c(Cn2ncc3c(N)ncnc32)nc2cccc(C)c2c1=O", "inactive"),
    ("CC(O)CN1CCN(CC(=O)[O-])CCN(CC(=O)[O-])CCN(CC(=O)[O-])CC1.[Gd+3] (stereo not drawn)", "inactive"),
    ("O=C(O)C(Cl)Cl", "inactive"),
]

Form field, Potency with Cytochrome P450 2D6 (Homo sapiens) (UniProt P10635), item CCOCCOC(C)=O : inactive

Form field, Potency with Cytochrome P450 2D6 (Homo sapiens) (UniProt P10635), item O=S(=O)(O)C(F)(F)C(F)(F)C(F)(F)C(F)(F)C(F)(F)C(F)(F)C(F)(F)C(F)(F)F : inactive

Form field, Potency with Cytochrome P450 2D6 (Homo sapiens) (UniProt P10635), item CC(=O)[O][Hg][c]1ccccc1 : 617 nM (active)

Form field, Potency with Cytochrome P450 2D6 (Homo sapiens) (UniProt P10635), item O=[N+]([O-])c1ccc([As](=O)(O)O)cc1 : inactive

Form field, Potency with Cytochrome P450 2D6 (Homo sapiens) (UniProt P10635), item CC1(C)CC/C(=C/c2ccc(Cl)cc2)C1(O)Cn1cncn1 (stereo not drawn) : 9410 nM (active)

Form field, Potency with Cytochrome P450 2D6 (Homo sapiens) (UniProt P10635), item C1CCC(NC2CCCCC2)CC1 : 1230 nM (active)

Form field, Potency with Cytochrome P450 2D6 (Homo sapiens) (UniProt P10635), item c1cc2ccc3cccc4ccc(c1)c2c34 : inactive

Form field, Potency with Cytochrome P450 2D6 (Homo sapiens) (UniProt P10635), item Cc1[nH]nc2ccc(-c3cncc(OC[C@@H](N)Cc4c[nH]c5ccccc45)c3)cc12 : 3790 nM (active)

###

TEST: Quantitative High-Throughput drug screen in 47 multiple myeloma cell lines against the NCATS MIPE library collection: KMS21BM_JCRB cell viability assay (AID 1918974); note: potency is the fitted concentration of half-maximal effect
EXPERIMENTAL CONTEXT: ATP luminescence, 48 h
Results filed as inconclusive are left out. Calls of active or inactive are those of the source. Calls follow the shape of the dose curve; as a rule, active = well fitted cell-killing curve with a large enough effect; inconclusive = small, poorly fitted or top-dose-only effect, or effect the other way; inactive = no such curve, though single readings can be large or run the other way.
OUTCOME MEASURE: Potency

As a guide, the following entries are already answered.
# LINE NOTATION, Potency
data = [
    ("CC(C)(O)C=CC(=O)[C@](C)(O)[C@H]1[C@H](O)C[C@]2(C)[C@@H]3CC=C4[C@@H](C=C(O)C(=O)C4(C)C)[C@]3(C)C(=O)C[C@@]12C", "0.0148 µM (active)"),
    ("O=C(Nc1ccncc1)C(=O)c1cn(Cc2ccc(Cl)cc2)c2ccccc12", "0.0074 µM (active)"),
    ("CC1=NN=C(c2ccc(N)cc2)c2cc3c(cc2C1)OCO3", "14.8 µM (active)"),
    ("C[C@@H]1CC[C@@]2(OC1)O[C@H]1C[C@H]3[C@@H]4CC=C5C[C@@H](O[C@@H]6O[C@H](CO)[C@@H](O[C@@H]7O[C@@H](C)[C@H](O)[C@@H](O)[C@@H]7O)[C@H](O)[C@@H]6O[C@@H]6O[C@@H](C)[C@H](O)[C@@H](O)[C@@H]6O)CC[C@]5(C)[C@@H]4CC[C@]3(C)[C@@H]1[C@H]2C", "1.48 µM (active)"),
    ("CCOC(=O)Nc1ccc(NCc2ccc(F)cc2)cc1N", "inactive"),
    ("CC(C)N[C@@H]1CCn2c(=O)[nH]c3cccc(c32)[C@@H]1O", "0.833 µM (active)"),
    ("Cc1c(C(=O)Nc2cccc(C(F)(F)F)c2)cc(-c2ccccc2)n1CCCN1CCOCC1", "18.7 µM (active)"),
    ("C[C@@H]1CC[C@H]2[C@@H](C)C(=O)O[C@@H]3O[C@@]4(C)CC[C@H]1[C@]32OO4", "inactive"),
    ("C[C@]12CC[C@H](O)CC1=CC[C@H]1[C@H]3CCC(=O)[C@@]3(C)CC[C@@H]12", "11.8 µM (active)"),
    ("O=C(N[C@H]1CN2CCC1CC2)c1ccc(Cl)cc1", "37.2 µM (active)"),
]

Attention now turns to another entry.
Measured Potency of O=c1[nH]c2ccccc2n1C1CCN(Cc2ccc(-c3[nH]c4cc5ncnc5cc4nc3-c3ccccc3)cc2)CC1 : 16.6 µM (active)
